# System: UACC-257 melanoma
# Method Notes: NCI tumour cell line growth inhibition, 48 h
Item-by-item account of TGI

COc1ccc(Br)c(N/N=C2\CCCNC2=O)c1 :: > 100 µM
CCc1cc(C(=O)OC)cn1C(=N)c1ccc(Cl)cc1 :: > 100 µM
C=C1C(=O)O[C@H]2[C@H]1CC/C(COC(=O)NCc1ccc(Cn3c(=O)sn(CCCl)c3=O)cc1)=C\CC[C@@]1(C)O[C@@H]21 :: 4.98 µM
CC(=O)OCC1OC(n2cnc(C(N)=S)c2N)C(OC(C)=O)C1OC(C)=O (stereo unspecified) :: > 100 µM
CC(C)(C)n1cc(-c2ccnc(NCCCNS(=O)(=O)c3ccc(C(F)(F)F)cc3)c2)c(-c2cccc(O)c2)n1 :: 4.6 µM
COc1ccc2nc3cccc([N+](=O)[O-])c3c(NCCCCCC(=O)O)c2c1 :: 0.926 µM
COc1ccc2c3c1O[C@]1(C)C34CCN(C)C(C2)C42C=C[C@@]1(OC)c1c(O)ccc(O)c12 :: > 100 µM
CC(C)C1CC[C@@H](C)C[C@@]1(O)CC(N)=O (stereo partly specified) :: > 100 µM

For the compound `CCOc1ccc(NC(=O)C(=O)CC(=O)c2sc(NNC(C)=O)nc2C)cc1` , what TGI is on record?
> 100 µM

Another compound to look at: `COC(=O)N/N=C(\Cc1ccccc1)CN(C)C`
> 100 µM

Another compound to look at: `CC(C)OC(=O)c1ccc(NCc2cc(O)ccc2O)cc1Cl`
37.1 µM

Another compound to look at: `COC(=O)c1nc(-c2ccccc2)oc1S(=O)(=O)Cc1ccccc1`
27.2 µM

Another compound to look at: `O=[N+]([O-])c1cc(C(F)(F)F)cc([N+](=O)[O-])c1CCl`
10.2 µM
